System: OVCAR-3 ovarian
Assay: NCI tumour cell line growth inhibition, 48 h
value-type: TGI (µM)
Numbers only, in µM.

// returns reported TGI for input COc1cc2c(cc1O)-c1c(cnn1-c1ccc([N+](=O)[O-])cc1)CCC2
55.2

Report TGI for each item below.
1. C/C=C/C/C=C/CCC(=O)[C@H]1O[C@H]1C(N)=O
2. CCC[CH2][Sn]([CH2]CCC)([O]C(=O)c1cc(F)ccc1F)[O][Sn]([CH2]CCC)([CH2]CCC)[O]C(=O)c1cc(F)ccc1F
3. O=[N+]([O-])c1ccccc1N=Nc1c(O)[nH]c2ccc(Br)cc12

1: 27.4; 2: 1.61; 3: 35.4

====

System: OVCAR-3 ovarian
Assay: NCI tumour cell line growth inhibition, 48 h
Assignment: determine reported GI50 for the given compounds.

# example entries with known answers
// returns reported GI50 for input N#Cc1ncc(-c2ccc(C(F)(F)F)cc2)c(NCc2cc(C(F)(F)F)cc(C(F)(F)F)c2)n1
3800 nM

And what about the compound Clc1cc2c(cc1Cl)Oc1cc(Cl)c(Cl)cc1O2 ?
> 625 nM

Further cases:
// returns reported GI50 for input Cc1ccc(NC(=O)Cc2ccc(/C=C/C(=O)c3ncc[nH]3)cc2)cc1
1670 nM

====

Assignment: determine reported TGI for the given molecules.
Test system: OVCAR-4 ovarian
Experiment: NCI tumour cell line growth inhibition, 48 h

// returns reported TGI for input CS(=O)(=O)OC1CN2CCC1CC2 (centres undefined)
> 100 µM

Report TGI for each item below.
1. O=C1N(c2ccccc2)C2(c3ccccc3)CC3CCCC13S2 (centres undefined)
2. C/C=C/C/C=C/CCC(=O)[C@H]1O[C@H]1C(N)=O
3. COc1cc(-c2nc3sccn3c2-c2ccnc(NCCNS(=O)(=O)c3ccc(Cl)cc3)n2)ccc1F
4. Nc1ccc2nc(NCc3ccc(F)cc3)cnc2c1

1. > 100 µM
2. 26.1 µM
3. > 100 µM
4. > 100 µM

====

Tested on: OVCAR-8 ovarian
Assay: NCI tumour cell line growth inhibition, 48 h
value-type: TGI

# example entries with known answers
// returns reported TGI for input CN(C)c1ccc(/C=C(\NC(=O)c2ccccc2)C(=O)NCC(=O)O)cc1
> 100 µM

And what about the compound Nc1ccc2nc(NCc3ccc(F)cc3)cnc2c1 ?
> 100 µM

And what about the compound CN(C)c1nc(N(C)C)nc(N(C)CN(C)c2ccc(Cl)cc2)n1 ?
> 100 µM

And what about the compound Cc1cc(NCCCNc2ccnc3cc(Cl)ccc23)nc(N2CCN(C)CC2)n1 ?
44 µM

And what about the compound O=S(=O)(Cc1ccc(Cl)cc1Cl)c1ccc(Cl)cc1 ?
> 100 µM

Report TGI for each item below.
1. Nc1cc(C(=O)O)[nH]c(=O)n1
2. CN(c1cc2ncc(=O)[nH]c2cc1NC(N)=NCc1ccc(Cl)cc1)C1CCCCC1
3. C=C1[C@H](OC(=O)C(C)C)[C@]23CC4(O)[C@@H]5[C@@]6(C)CCC[C@]57C([C@@H]2C[C@@]1(O)[C@H](O)[C@@H]73)N4C6
4. Nc1cc2c(nnn2C2OC(COCc3ccccc3)C(OCc3ccccc3)C2OCc2ccccc2)c(=O)[nH]1 (stereo unspecified)

> 100 µM
23.3 µM
> 100 µM
> 100 µM

Report TGI for each item below.
1. CC(=O)Nc1ccc(N=C2C(c3ccccc3)=C(SC3=C(c4ccccc4)C(=Nc4ccc(NC(C)=O)cc4)c4ccccc43)c3ccccc32)cc1
2. N=C(N)c1ccc(OCCOCCOc2ccc(C(=N)N)cc2)cc1
3. COc1cc(/C=C2/SC(c3ccccc3)N(c3cccc(Cl)c3)C2=O)cc(OC)c1OC (stereo unspecified)
4. COP(=O)(Cc1ccc(/C=C/C#N)o1)OC
5. O=c1cc(-c2ccc(O)cc2)n(C2CC2)c2ccccc12
6. COC(=O)C1=C(C)NC(C)=C(C(=O)OC)C1/C=C(\Cl)c1ccc(Cl)c(Cl)c1
7. CCOC(O)(NC(=O)C(C(F)(F)F)C(F)(F)F)C(F)(F)F (stereo unspecified)
8. [Cl][Sn]([Cl])([c]1ccccc1)[c]1ccccc1

1: > 100 µM; 2: > 100 µM; 3: 59.6 µM; 4: > 100 µM; 5: 47.1 µM; 6: > 100 µM; 7: > 100 µM; 8: 27.8 µM

Report TGI for each item below.
1. O=C(c1ccco1)N(Cc1ccco1)C(=S)Nc1ccccc1
2. COC(=O)[C@H](Cc1ccccc1)NC(=O)N1CCCN(C(=O)N[C@@H](Cc2ccccc2)C(=O)OC)CCCN(C(=O)N[C@@H](Cc2ccccc2)C(=O)OC)CCC1
3. N#CC1Cc2cc3c(cc21)OCO3 (stereo unspecified)
4. CS(=O)(=O)OC1CN2CCC1CC2 (stereo unspecified)
5. O=Cc1c2ccccc2n2ccc3c4ccccc4[nH]c3c12
6. O=S(=O)(N/N=C/c1ccc(Cl)c(Cl)c1)c1ccccc1
7. CN(C)CCC(O)(c1ccccc1)C(O)(CCN(C)C)c1ccccc1 (stereo unspecified)
8. CCOC(=O)C[C@@H]1C2(C=C[C@@]13CO3)OCC(C)(C)CO2

59.7 µM
47.2 µM
> 100 µM
> 100 µM
> 10 µM
> 100 µM
> 100 µM
> 100 µM

====

Test system: HT29 colon
Experiment: NCI tumour cell line growth inhibition, 48 h; in the data active means GI50 below about 0.43 µM; inactive means the rest
Your reply should match one of these outcome classes. true (active), false (inactive)

Observe how each entry below is paired with its result.
So what was the verdict on CCCCCc1nc2c(c3c1CCCC3)CCCC2 in this test?
false

And what about the compound COc1cc2c(cc1OCCCCCOc1cc3c(cc1OC)C(=O)N1CC(F)C[C@H]1C=N3)N=C[C@@H]1CC(F)CN1C2=O (stereo not given in full) ?
true

And what about the compound O=C(Nc1ccc(F)cc1)Nc1ccccc1CNc1nc(Nc2ccc(OCCN3CCCC3)cc2)ncc1Cl ?
false

And what about the compound CCOc1ccc(-c2cnnn2-c2nonc2-n2cccc2)cc1 ?
true

Further cases:
So what was the verdict on Fc1ccc(-c2nn3c(-c4ccc(F)c(Cl)c4)nnc3s2)cc1 in this test?
false

And what about the compound CC(=O)N1N=C(c2ccc(Nc3nc(Nc4ccc(Cl)cc4)nc(Nc4ccc(Cl)cc4)n3)cc2)CC1c1ccc([N+](=O)[O-])cc1 (stereo not given) ?
false

And what about the compound Nc1ncnc2c1ncn2Cc1ccc(C23CC4CC(CC(C4)C2)C3)c(OCc2cc(F)c(F)cc2F)c1 ?
false

And what about the compound Cc1cc(NCCCNc2ccnc3cc(Cl)ccc23)nc(N2CCN(C)CC2)n1 ?
false

And what about the compound Cn1cc(C2=C(c3cccc(N)c3)C(=O)NC2=O)c2ccccc21 ?
false

And what about the compound CCN1/C(=C/C=C/c2n(-c3ccccc3)c3ccc(-c4nc5ccccc5s4)cc3[n+]2CC)N(c2ccccc2)c2ccc(-c3nc4ccccc4s3)cc21 ?
true

And what about the compound COc1cc2c3c(n(CCCN(CCN)CCCn4c5c(c6cc(OC)c(OC)cc6c4=O)C(=O)c4cc6c(cc4-5)OCO6)c(=O)c2cc1OC)-c1cc2c(cc1C3=O)OCO2 ?
false

====

Assignment: determine reported TGI for the given compounds.
System: DU-145 prostate
Assay: NCI tumour cell line growth inhibition, 48 h

Param readout= TGI; system= DU-145 prostate; entry= COC(=O)[C@H](Cc1ccccc1)NC(=O)N1CCCN(C(=O)N[C@@H](Cc2ccccc2)C(=O)OC)CCCN(C(=O)N[C@@H](Cc2ccccc2)C(=O)OC)CCC1 ; returns value.
34 µM

And what about the compound O=Cc1cc([N+](=O)[O-])no1 ?
> 100 µM

Report TGI for each item below.
1. Nc1ccccc1-c1ccc([N+](=O)[O-])cc1
2. Cc1ncc([N+](=O)[O-])n1CCN(C)C(=O)CCCn1ccnc1[N+](=O)[O-]
3. O=C(O)c1cc(=O)[nH]c(SCc2ccccc2)n1
4. O=C1N(c2ccccc2)C2(c3ccccc3)CC3CCCC13S2 (stereo not given)
5. N#Cc1c(NC(=S)Nc2ccc(Cl)cc2)sc2c1CCCC2
6. S=c1nc(Cc2ccc(Cl)cc2)[nH][nH]1

1: > 100 µM; 2: > 100 µM; 3: > 100 µM; 4: > 100 µM; 5: > 100 µM; 6: > 100 µM

Report TGI for each item below.
1. COc1cc2c(c(O)c1OC)C(O)C1CCC(=O)N1C2c1cccc2ccccc12 (stereo not given)
2. CC(=O)Nc1ccc2c3c(cc(O)c2c1)N(C(=O)CCCCCC(=O)N1CC(CCl)c2c1cc(O)c1cc(NC(C)=O)ccc21)CC3CCl (stereo not given)

> 100 µM
0.0392 µM

====

Test system: SK-OV-3 ovarian
Assay: NCI tumour cell line growth inhibition, 48 h
value-type: TGI

# example entries with known answers
// returns reported TGI for input COc1ccc(/C(Cl)=C(/c2ccc(O)cc2)c2ccc(OCCN(C)C)cc2)cc1
26.3 µM

And what about the compound O=Cc1c2ccccc2n2ccc3c4ccccc4[nH]c3c12 ?
> 10 µM

And what about the compound COC(c1cccc(C(O)(C(F)(F)F)C(F)(F)F)c1)(C(F)(F)F)C(F)(F)F ?
34.4 µM

And what about the compound COP(=O)(Cc1ccc(/C=C/C#N)o1)OC ?
> 100 µM

And what about the compound COc1ccc(N(CN2C(=O)CCC2C(=O)O)C(C)=O)cc1 (stereo unspecified) ?
> 100 µM

With those in mind, consider the next compound.
// returns reported TGI for input COc1ccc(NC(=O)CC(=O)N2N=C(c3ccccc3)C(N=Nc3ccc(S(=O)(=O)CCOS(=O)(=O)O)cc3)C2=O)cc1 (stereo unspecified)
> 100 µM
